- Method summary: AUC (0 to last t) in Beagle dog at 1 mg/kg, iv
- Format: ADME, organism-based, Canis lupus familiaris
- Design: time 0 - last, dose 1 mg/kg, route intravenous
- Experimental setup: plasma
Metric: AUC(0-t) (ng·h/mL)
I only need the number, in ng·h/mL, no unit after it.

Prompt: Would you kindly share the measured AUC(0-t) for O=C(O)CN1C(=O)[C@@]2(CC(=O)N(Cc3ccccc3F)C2=O)c2cc(Cl)ccc21 ?
Completion: 2020

Prompt: Would you kindly share the measured AUC(0-t) for O=C(O)CN1C(=O)[C@@]2(CC(=O)N(Cc3cc(Cl)ccc3F)C2=O)c2cc(Cl)ccc21 ?
Completion: 637

====

- Measurement target: Prostaglandin D2 receptor 2 (Homo sapiens)
- Sequence (Q9Y5Y4 whole entry): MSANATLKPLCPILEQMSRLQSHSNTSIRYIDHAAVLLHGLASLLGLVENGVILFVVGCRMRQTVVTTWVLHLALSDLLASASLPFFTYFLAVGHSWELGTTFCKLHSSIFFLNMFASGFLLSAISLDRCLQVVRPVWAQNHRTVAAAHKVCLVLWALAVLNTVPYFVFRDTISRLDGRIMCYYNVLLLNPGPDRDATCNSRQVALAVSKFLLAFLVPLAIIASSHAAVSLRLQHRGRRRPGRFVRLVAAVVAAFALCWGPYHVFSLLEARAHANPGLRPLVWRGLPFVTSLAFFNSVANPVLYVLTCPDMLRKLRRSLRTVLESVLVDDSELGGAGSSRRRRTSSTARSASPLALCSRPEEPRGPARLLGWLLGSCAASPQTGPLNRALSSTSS
- Method summary: Displacement of [3H]PGD2 from human CRTH2 receptor expressed in CHO cells
pKi: −log10 of the molar value.
Classification field: enter label 1 for pKi values not below 7, label 0 for values below it.

Prompt: Determine whether measured pKi meets or exceeds 7 for Cc1onc(-c2ccccc2)c1CN1CCC2(C1=O)C(=O)N(CC(=O)O)c1ccc(Cl)cc12 (stereo not drawn)
Completion: label 0

Prompt: Determine whether measured pKi meets or exceeds 7 for Cc1nc(CN2C(=O)CC3(C2=O)C(=O)N(CC(=O)O)c2ccc(Cl)cc23)cs1 (stereo not drawn)
Completion: label 1

Prompt: Determine whether measured pKi meets or exceeds 7 for O=C(O)CN1C(=O)C2(CC(=O)N(Cc3ccoc3)C2=O)c2cc(Cl)ccc21 (stereo not drawn)
Completion: label 0

Prompt: Determine whether measured pKi meets or exceeds 7 for O=C(O)CN1C(=O)C2(CC(=O)N(Cc3nnc(C4CC4)s3)C2=O)c2cc(Cl)ccc21 (stereo not drawn)
Completion: label 0

Prompt: Determine whether measured pKi meets or exceeds 7 for O=C(O)CN1C(=O)C2(CC(=O)N(Cc3ncco3)C2=O)c2cc(Cl)ccc21 (stereo not drawn)
Completion: label 0

Prompt: Determine whether measured pKi meets or exceeds 7 for COc1cccc(CN2C(=O)CC3(C2=O)C(=O)N(CC(=O)O)c2ccc(Cl)cc23)c1 (stereo not drawn)
Completion: label 0

Prompt: Determine whether measured pKi meets or exceeds 7 for O=C(O)CN1C(=O)C2(CC(=O)N(Cc3cc(F)ccc3F)C2=O)c2cc(Cl)ccc21 (stereo not drawn)
Completion: label 1

Prompt: Determine whether measured pKi meets or exceeds 7 for CC(c1ccccc1)N1C(=O)CC2(C(=O)N(CC(=O)O)c3ccc(Cl)cc32)C1=O (stereo not drawn)
Completion: label 0

Prompt: Determine whether measured pKi meets or exceeds 7 for O=C(O)CN1C(=O)[C@]2(CC(=O)N(Cc3cccc(Cl)c3)C2=O)c2cc(Cl)ccc21
Completion: label 0

Prompt: Determine whether measured pKi meets or exceeds 7 for O=C(O)CN1C(=O)C2(CC(=O)N(Cc3csc(-c4cccc(Cl)c4)n3)C2=O)c2cc(Cl)ccc21 (stereo not drawn)
Completion: label 1

Prompt: Determine whether measured pKi meets or exceeds 7 for COc1ccc(-c2nc(CN3C(=O)CC4(C3=O)C(=O)N(CC(=O)O)c3ccc(Cl)cc34)no2)cc1 (stereo not drawn)
Completion: label 0

Prompt: Determine whether measured pKi meets or exceeds 7 for C=CCN1C(=O)CC2(C1=O)C(=O)N(CCCC(=O)O)c1ccc(F)cc12 (stereo not drawn)
Completion: label 0

====

Would you kindly list bioavailability for each of these compounds?
- Method summary: Oral bioavailability in rat at 5 mg/kg
- Type: ADME, organism-based
- Experimental setup: in vivo
I only need the number, in %, no unit after it.

Prompt: Would you kindly share the measured bioavailability for O=C(O)CN1C(=O)[C@@]2(CC(=O)N(Cc3cc(Cl)ccc3F)C2=O)c2cc(Cl)ccc21 ?
Completion: 32

Prompt: Would you kindly share the measured bioavailability for O=C(O)CN1C(=O)[C@@]2(CC(=O)N(Cc3ccccc3F)C2=O)c2cc(Cl)ccc21 ?
Completion: 40

Prompt: Would you kindly share the measured bioavailability for O=C(O)CN1C(=O)C2(CC(=O)N(Cc3cc(Cl)ccc3F)C2)c2cc(Cl)ccc21 (single isomer, unassigned; form 1) ?
Completion: 5

Prompt: Would you kindly share the measured bioavailability for Cc1noc(-c2ccccc2)c1CN1CC2(CC1=O)C(=O)N(CC(=O)O)c1ccc(Cl)cc12 (centres undefined) ?
Completion: 0.2
